# TESTED_SYSTEM: human GLP-1 receptor (human, UniProt P43220 24-463)
# EXPERIMENTAL_PROTOCOL: cell-based or functional assay
Bridge positions count the residues as written; N and C are the ends. Square brackets hold non-standard residues; d marks the D form. Ends that are not written are not given here. * marks the point of attachment. Acetyl(2-(4-imidazolyl)) = O=C(Cc1c[nH]cn1)*; Aib = CC(C)(N)C(=O)O
Mark no (0) for In vitro activity compared with native peptide (%) vs GLP-1 (cAMP EC50) values under 20%, and yes (1) for everything at or above.

[Acetyl(2-(4-imidazolyl))]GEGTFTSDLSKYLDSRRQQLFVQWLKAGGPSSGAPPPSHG [triple agonist of SEQ ID NO: 11]	no (0)
H[Aib]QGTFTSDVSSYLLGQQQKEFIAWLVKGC [triple agonist of SEQ ID NO: 4]	no (0)
H[Aib]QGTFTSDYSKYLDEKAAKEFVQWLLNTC (bridge 16-20) [triple agonist of SEQ ID NO: 29]	yes (1)
H[Aib]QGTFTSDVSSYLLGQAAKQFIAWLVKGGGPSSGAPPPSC [triple agonist of SEQ ID NO: 3]	no (0)
H[Aib]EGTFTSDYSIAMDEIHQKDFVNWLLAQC (bridge 16-20) [triple agonist of SEQ ID NO: 53]	yes (1)
H[Aib]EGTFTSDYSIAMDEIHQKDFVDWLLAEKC (bridge 16-20) [triple agonist of SEQ ID NO: 80]	no (0)
Y[Aib]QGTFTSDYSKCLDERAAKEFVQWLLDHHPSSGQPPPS (bridge 16-20) [triple agonist of SEQ ID NO: 69]	yes (1)
Y[Aib]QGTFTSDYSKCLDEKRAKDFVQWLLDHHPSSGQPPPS (bridge 16-20) [triple agonist of SEQ ID NO: 70]	no (0)
{Acetyl(2-(4-imidazolyl))}-[Aib]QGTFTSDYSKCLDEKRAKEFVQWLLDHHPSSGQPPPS (bridge 15-19) [triple agonist of SEQ ID NO: 74]	no (0)
[Acetyl(2-(4-imidazolyl))][Aib]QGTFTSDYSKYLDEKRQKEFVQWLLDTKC (bridge 16-20) [triple agonist of SEQ ID NO: 89]	no (0)
Y[Aib]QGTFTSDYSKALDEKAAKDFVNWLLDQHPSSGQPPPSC (bridge 16-20) [triple agonist of SEQ ID NO: 102]	yes (1)
Y[Aib]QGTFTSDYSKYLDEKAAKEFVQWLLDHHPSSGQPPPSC (bridge 16-20) [triple agonist of SEQ ID NO: 75]	yes (1)
[Acetyl(2-(4-imidazolyl))]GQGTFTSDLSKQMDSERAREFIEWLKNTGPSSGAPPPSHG [triple agonist of SEQ ID NO: 18]	no (0)
H[Aib]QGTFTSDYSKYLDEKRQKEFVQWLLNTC (bridge 16-20) [triple agonist of SEQ ID NO: 51]	no (0)
H[Aib]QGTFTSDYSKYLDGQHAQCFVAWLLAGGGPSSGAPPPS [triple agonist of SEQ ID NO: 39]	no (0)
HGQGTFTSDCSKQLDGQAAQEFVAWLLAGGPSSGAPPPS [triple agonist of SEQ ID NO: 44]	no (0)
Y[Aib]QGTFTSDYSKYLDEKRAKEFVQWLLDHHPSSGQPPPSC (not fully specified (bridges)) [triple agonist of SEQ ID NO: 42]	yes (1)
{Acetyl(2-(4-imidazolyl))}-[Aib]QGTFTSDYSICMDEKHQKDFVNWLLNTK (bridge 15-19) [triple agonist of SEQ ID NO: 59]	yes (1)
H[Aib]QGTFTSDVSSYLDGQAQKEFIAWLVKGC [triple agonist of SEQ ID NO: 2]	no (0)
[Acetyl(2-(4-imidazolyl))][Aib]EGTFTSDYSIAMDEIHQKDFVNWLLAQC (bridge 16-20) [triple agonist of SEQ ID NO: 83]	yes (1)
